Measured log10 of Kb of individual entries
Tested system: 5-hydroxytryptamine receptor 1A (Homo sapiens) (UniProt P08908)
Assay procedure: Antagonist activity at human 5-HT1A receptor expressed in CHO-K1 cells co-expressing Galpha16 assessed as decrease in serotonin calcium mobilization preincubated for 25 mins followed by serotonin challenge measured for 30 secs by aequorin-derived luminescence assay
Assay type: functional, cell-based
Plainly stated, the numbers are log10 of Kb given in µM.

COc1ccc(N2CCN(CCCOc3c(C)cc(C)cc3C)CC2)cc1.Cl.Cl :: -0.84
Cc1cc(C)c(OCCOCCN2CCN(CCc3ccccc3)CC2)c(C)c1.Cl.Cl :: -0.54
Cc1cc(OCCCN2CCN(c3ccccc3)CC2)ccc1Cl.Cl.Cl :: -1.15
COc1ccccc1N1CCN(CCOCCOc2c(C)cc(C)cc2C)CC1.Cl.Cl :: -1.86
COc1ccccc1N1CCN(CCOCCOc2cc(C)cc(C)c2C)CC1.Cl.Cl :: -1.03

# input # get_value(readout= log10 of Kb, system= 5-hydroxytryptamine receptor 1A (Homo sapiens) (UniProt P08908)) for COc1ccccc1N1CCN(C[C@@H](C(=O)NC(C)(C)C)c2ccccc2)CC1
# output -2.18

# input Repeat for the following compound: COc1ccccc1N1CCN(CCCOc2ccc(C)cc2C)CC1.Cl
# output -2.74

====

Tested system: Alpha-1A adrenergic receptor (Homo sapiens)
Sequence (P35348 whole entry): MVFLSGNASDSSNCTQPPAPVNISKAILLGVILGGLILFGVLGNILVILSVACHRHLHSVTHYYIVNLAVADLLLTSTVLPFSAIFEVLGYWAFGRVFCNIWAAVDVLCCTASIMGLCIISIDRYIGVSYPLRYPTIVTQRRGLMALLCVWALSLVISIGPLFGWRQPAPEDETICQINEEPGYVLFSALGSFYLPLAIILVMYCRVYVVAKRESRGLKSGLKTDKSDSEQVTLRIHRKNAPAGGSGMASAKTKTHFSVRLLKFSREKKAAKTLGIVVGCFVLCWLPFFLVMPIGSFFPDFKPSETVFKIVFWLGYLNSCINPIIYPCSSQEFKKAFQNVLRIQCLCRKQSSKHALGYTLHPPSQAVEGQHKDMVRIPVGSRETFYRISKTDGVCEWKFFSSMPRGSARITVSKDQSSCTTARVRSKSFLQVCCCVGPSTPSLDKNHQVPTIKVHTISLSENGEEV
Assay procedure: Displacement of [3H]prazosin from recombinant human alpha1 adrenoceptor expressed in CHO cell membranes after 30 mins by liquid scintillation counting method
Measured pKi of individual entries
FYI, pKi means -log10 of a concentration in mol per litre.

Cc1cc(C)c(OCCOCCN2CCN(CCc3ccccc3)CC2)c(C)c1.Cl.Cl :: 6.11
COc1ccccc1N1CCN(CCOCCOc2cc(C)cc(C)c2C)CC1.Cl.Cl :: 7.85
COc1ccccc1N1CCN(CCCOc2ccc(C)cc2C)CC1.Cl :: 7.96
COc1ccccc1N1CCN(CCOCCOc2c(C)cc(C)cc2C)CC1.Cl.Cl :: 7.82
COc1ccc(N2CCN(CCCOc3c(C)cc(C)cc3C)CC2)cc1.Cl.Cl :: 5.67
Cc1cccc(OCCOCCN2CCN(CCc3ccccc3)CC2)c1C.Cl.Cl :: 7.44

Next compound, pKi to be filled in.
# input May I ask what pKi has been recorded for Cc1cc(OCCCN2CCN(c3ccccc3)CC2)ccc1Cl.Cl.Cl ?
# output 7.03

====

Tested system: 5-hydroxytryptamine receptor 7 (Homo sapiens)
Sequence (P34969 whole entry): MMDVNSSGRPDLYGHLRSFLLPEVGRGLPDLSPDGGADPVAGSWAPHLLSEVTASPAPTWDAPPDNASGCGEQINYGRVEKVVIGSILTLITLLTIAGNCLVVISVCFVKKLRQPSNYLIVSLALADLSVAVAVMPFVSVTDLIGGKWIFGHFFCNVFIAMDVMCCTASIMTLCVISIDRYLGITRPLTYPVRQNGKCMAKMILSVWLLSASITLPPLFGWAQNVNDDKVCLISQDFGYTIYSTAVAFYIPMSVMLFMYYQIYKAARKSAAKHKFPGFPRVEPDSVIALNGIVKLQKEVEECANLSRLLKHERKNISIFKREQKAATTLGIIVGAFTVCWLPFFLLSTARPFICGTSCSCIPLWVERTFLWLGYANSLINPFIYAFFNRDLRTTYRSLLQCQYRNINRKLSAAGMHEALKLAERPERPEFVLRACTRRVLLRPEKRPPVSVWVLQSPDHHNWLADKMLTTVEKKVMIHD
Assay procedure: Antagonist activity at human 5-HT7 receptor expressed in CHO-K1 cells assessed as decrease in serotonin-induced cAMP level after 1 hr by TR-FRET assay
Assay type: functional, cell-based
Parameter: IC50 (nM)
Enter your answer as a number in nM; do not include the unit.

Field: example entries. Status: answers known.
COc1ccccc1N1CCN(CCCOc2ccc(C)cc2C)CC1.Cl :: 1050
Cc1cc(OCCCN2CCN(c3ccccc3)CC2)ccc1Cl.Cl.Cl :: 5790
COc1ccccc1N1CCN(CCOCCOc2cc(C)cc(C)c2C)CC1.Cl.Cl :: 2340

Next compound, IC50 to be filled in.
# input May I ask what IC50 has been recorded for COc1ccccc1N1CCN(CCOCCOc2c(C)cc(C)cc2C)CC1.Cl.Cl ?
# output 1840

====

Tested system: D(2) dopamine receptor (Homo sapiens, UniProt P14416)
Sequence (P14416 whole entry): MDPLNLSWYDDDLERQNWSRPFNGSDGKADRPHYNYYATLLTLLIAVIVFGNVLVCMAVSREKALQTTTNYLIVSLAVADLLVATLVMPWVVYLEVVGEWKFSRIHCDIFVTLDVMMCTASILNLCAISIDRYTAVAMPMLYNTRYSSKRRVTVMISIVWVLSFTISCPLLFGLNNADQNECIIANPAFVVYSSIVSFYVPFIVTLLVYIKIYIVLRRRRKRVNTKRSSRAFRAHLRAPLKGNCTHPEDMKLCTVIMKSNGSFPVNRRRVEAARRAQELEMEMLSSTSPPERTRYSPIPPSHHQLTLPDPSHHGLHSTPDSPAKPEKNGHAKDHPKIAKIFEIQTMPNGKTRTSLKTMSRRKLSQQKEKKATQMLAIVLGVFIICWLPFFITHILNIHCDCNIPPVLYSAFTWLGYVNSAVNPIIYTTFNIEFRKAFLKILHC
Assay procedure: Agonist activity at human D2 receptor expressed in CHO-K1 cells co-expressing Galphaqi5 assessed as increase apomorphine-induced calcium mobilization measured for 30 secs by aequorin-derived luminescence assay relative to apomorphine
Format: functional, cell-based
Measured Emax of individual entries
Enter your answer as a number in %; do not include the unit.

# input May I ask what Emax has been recorded for COc1ccccc1N1CCN(CCCOc2ccc(C)cc2C)CC1.Cl ?
# output 2

# input Repeat for the following molecule: COc1ccccc1N1CCN(CCOCCOc2cc(C)cc(C)c2C)CC1.Cl.Cl
# output 1

# input Repeat for the following molecule: Cc1cc(OCCCN2CCN(c3ccccc3)CC2)ccc1Cl.Cl.Cl
# output 48

# input Repeat for the following molecule: COc1ccccc1N1CCN(CCOCCOc2c(C)cc(C)cc2C)CC1.Cl.Cl
# output 1

# input Repeat for the following molecule: CN(C)CCCN1c2ccccc2Sc2ccc(Cl)cc21
# output 5

====

Tested system: 5-hydroxytryptamine receptor 2A (Homo sapiens, UniProt P28223)
Sequence (P28223 whole entry): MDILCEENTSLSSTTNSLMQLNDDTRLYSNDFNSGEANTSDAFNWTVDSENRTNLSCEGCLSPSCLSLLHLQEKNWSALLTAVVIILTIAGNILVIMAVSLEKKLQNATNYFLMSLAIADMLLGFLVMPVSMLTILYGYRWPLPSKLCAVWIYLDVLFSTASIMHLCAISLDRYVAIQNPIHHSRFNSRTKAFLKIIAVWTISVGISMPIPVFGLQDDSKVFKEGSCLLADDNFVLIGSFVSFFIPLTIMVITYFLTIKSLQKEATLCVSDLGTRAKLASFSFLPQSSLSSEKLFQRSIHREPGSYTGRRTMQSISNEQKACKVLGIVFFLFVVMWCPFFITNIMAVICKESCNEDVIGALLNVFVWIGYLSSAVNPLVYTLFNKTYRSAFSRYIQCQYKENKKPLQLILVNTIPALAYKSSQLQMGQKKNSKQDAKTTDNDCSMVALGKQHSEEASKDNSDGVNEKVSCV
Assay procedure: Binding affinity to 5-HT2A receptor (unknown origin)
Parameter: pKi
FYI, pKi means -log10 of a concentration in mol per litre.

# input May I ask what pKi has been recorded for OCCOCCN1CCN(C(c2ccccc2)c2ccc(Cl)cc2)CC1 (stereo unspecified) [HYDROXYZINE] ?
# output 7.30

====

Tested system: 5-hydroxytryptamine receptor 1A (Homo sapiens)
Assay procedure: Antagonist activity at human 5-HT1A receptor expressed in CHO-K1 cells co-expressing Galpha16 assessed as decrease in serotonin calcium mobilization preincubated for 25 mins followed by serotonin challenge measured for 30 secs by aequorin-derived luminescence assay
Values of IC50 strictly less than 300 nM map to Met, and values of at least 300 nM map to Not met.

Solved cases below.
COc1ccccc1N1CCN(C[C@@H](C(=O)NC(C)(C)C)c2ccccc2)CC1 :: Met
COc1ccccc1N1CCN(CCCOc2ccc(C)cc2C)CC1.Cl :: Met

# input Decide: IC50 of COc1ccc(N2CCN(CCCOc3c(C)cc(C)cc3C)CC2)cc1.Cl.Cl strictly below 300 nM?
# output Not met

# input Repeat for the following compound: COc1ccccc1N1CCN(CCOCCOc2cc(C)cc(C)c2C)CC1.Cl.Cl
# output Not met

# input Repeat for the following compound: Cc1cc(C)c(OCCOCCN2CCN(CCc3ccccc3)CC2)c(C)c1.Cl.Cl
# output Not met

# input Repeat for the following compound: COc1ccccc1N1CCN(CCOCCOc2c(C)cc(C)cc2C)CC1.Cl.Cl
# output Met

====

Measured selectivity ratio of individual entries
Assay procedure: Protection index, ratio of TD50 for motor impairment in ip dosed Swiss albino CD-1 mouse to ED50 for protection against 50 Hz current-induced seizures in ip dosed Swiss albino CD-1 mouse
Type: toxicity, organism-based, Swiss CD-1
Experimental parameters: in vivo, read-out: Ratio TD50/ED50
Answer as a number with no unit attached.

COc1ccc(N2CCN(CCCOc3c(C)cc(C)cc3C)CC2)cc1.Cl.Cl :: 2.89
Cc1cccc(OCCOCCN2CCN(CCc3ccccc3)CC2)c1C.Cl.Cl :: 1.6
Cc1cc(C)c(C)c(OCCOCCN2CCN(CCO)CC2)c1.Cl.Cl :: 3.07

# input May I ask what selectivity ratio has been recorded for Cc1cc(C)c(OCCN2CCN(CCOCCO)CC2)c(C)c1.Cl.Cl ?
# output 1.88

# input Repeat for the following molecule: COc1ccccc1N1CCN(CCOCCOc2c(C)cc(C)cc2C)CC1.Cl.Cl
# output 1.19

# input Repeat for the following molecule: Cc1cc(C)c(OCCOCCN2CCN(CCc3ccccc3)CC2)c(C)c1.Cl.Cl
# output 2.96

====

Tested system: UniProt P08908
Sequence (P08908 whole entry): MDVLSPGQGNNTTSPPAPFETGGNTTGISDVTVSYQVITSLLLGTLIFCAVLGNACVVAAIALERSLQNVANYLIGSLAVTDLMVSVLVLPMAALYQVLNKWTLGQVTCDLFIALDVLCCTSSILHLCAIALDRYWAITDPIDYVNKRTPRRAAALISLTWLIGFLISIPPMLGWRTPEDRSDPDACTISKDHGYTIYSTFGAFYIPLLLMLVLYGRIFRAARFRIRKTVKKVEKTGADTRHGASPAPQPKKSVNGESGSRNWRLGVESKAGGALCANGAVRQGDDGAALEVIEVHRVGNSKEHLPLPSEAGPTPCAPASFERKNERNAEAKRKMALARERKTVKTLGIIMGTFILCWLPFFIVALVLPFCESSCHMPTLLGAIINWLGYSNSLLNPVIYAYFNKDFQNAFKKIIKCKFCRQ
Assay procedure: Binding affinity to 5-HT1A receptor (unknown origin)
Parameter: pKi
FYI, pKi means -log10 of a concentration in mol per litre.

# input # get_value(readout= pKi, system= UniProt P08908) for COc1ccccc1N1CCN(CCCNc2cc(=O)n(C)c(=O)n2C)CC1
# output 6.67

====

Tested system: UniProt P50406
Sequence (P50406 whole entry): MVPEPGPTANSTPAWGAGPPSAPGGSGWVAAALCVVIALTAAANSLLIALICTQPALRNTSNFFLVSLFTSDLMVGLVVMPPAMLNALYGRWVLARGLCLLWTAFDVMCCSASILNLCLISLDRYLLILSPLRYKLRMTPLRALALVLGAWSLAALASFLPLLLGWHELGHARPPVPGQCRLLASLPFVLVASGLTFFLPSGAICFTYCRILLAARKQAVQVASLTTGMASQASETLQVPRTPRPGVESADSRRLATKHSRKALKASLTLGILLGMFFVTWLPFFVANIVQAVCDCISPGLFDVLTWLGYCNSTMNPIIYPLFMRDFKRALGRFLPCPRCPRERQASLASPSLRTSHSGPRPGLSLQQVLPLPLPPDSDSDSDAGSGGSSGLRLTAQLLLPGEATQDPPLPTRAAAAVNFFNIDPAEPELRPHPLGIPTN
Assay procedure: Displacement of [3H]LSD from recombinant human 5-HT6 receptor expressed in CHO cells cell membranes after 60 mins by liquid scintillation counting method
Parameter: Ki (µM)
Enter your answer as a number in µM; do not include the unit.

Field: example entries. Status: answers known.
COc1ccccc1N1CCN(CCOCCOc2cc(C)cc(C)c2C)CC1.Cl.Cl :: 1.54
Cc1cccc(OCCOCCN2CCN(CCc3ccccc3)CC2)c1C.Cl.Cl :: 0.2
Cc1cc(C)c(OCCOCCN2CCN(CCc3ccccc3)CC2)c(C)c1.Cl.Cl :: 2.15

Next molecule, Ki to be filled in.
# input May I ask what Ki has been recorded for COc1ccccc1N1CCN(CCOCCOc2c(C)cc(C)cc2C)CC1.Cl.Cl ?
# output 2.43
